Data provenance: patent US20150344444A1

test system: MOLM-13 cells; assay: MOLM-13 cell proliferation assay (alamarBlue); assay type: cell-based; conditions: inhibition of cell proliferation, 96 hours, human AML cell line
VALUE KIND: IC50 (nM)

Solved entries (count: 2):
COc1ccc(CN2c3cc(Nc4ccc(C(=O)N5CC6(COC6)C5)cc4)ccc3N(C)C(=O)[C@H]2C)cc1 [Example 20] = 351
C[C@@H]1C(=O)N(C)c2ccc(Nc3ccc(C(=O)NC4CCN(C)CC4)cc3)cc2N1C1CCOCC1 [Example 26] = 1580

P = CC(C)N1CCN(C(=O)c2ccc(Nc3ccc4c(c3)N(C3CCOCC3)[C@H](C)C(=O)N4C)cc2)CC1 [Example 33]
Q = COc1cc(C(=O)N2CCN(C)CC2)ccc1Nc1ccc2c(c1)N(C1CCOCC1)[C@H](C)C(=O)N2C [Example 38]
R = COc1ccc(CN2c3cc(Nc4ccc(C(=O)N5CCOCC5)cc4)ccc3N(C)C(=O)[C@H]2C)cc1 [Example 18]
S = C[C@@H]1C(=O)N(C)c2ccc(Nc3ccc(C(=O)N4CC5(CCS5(=O)=O)C4)cc3)cc2N1Cc1ccccc1 [Example 16]
# rank_down: sort by IC50, max first Response format: the labels, sorted as the prompt asks. Q, P, S, R
